For each entry below, report its pEC50 value.
- tgt: ABCC6 WT (Homo sapiens, UniProt O95255)
- Sequence (O95255 whole entry): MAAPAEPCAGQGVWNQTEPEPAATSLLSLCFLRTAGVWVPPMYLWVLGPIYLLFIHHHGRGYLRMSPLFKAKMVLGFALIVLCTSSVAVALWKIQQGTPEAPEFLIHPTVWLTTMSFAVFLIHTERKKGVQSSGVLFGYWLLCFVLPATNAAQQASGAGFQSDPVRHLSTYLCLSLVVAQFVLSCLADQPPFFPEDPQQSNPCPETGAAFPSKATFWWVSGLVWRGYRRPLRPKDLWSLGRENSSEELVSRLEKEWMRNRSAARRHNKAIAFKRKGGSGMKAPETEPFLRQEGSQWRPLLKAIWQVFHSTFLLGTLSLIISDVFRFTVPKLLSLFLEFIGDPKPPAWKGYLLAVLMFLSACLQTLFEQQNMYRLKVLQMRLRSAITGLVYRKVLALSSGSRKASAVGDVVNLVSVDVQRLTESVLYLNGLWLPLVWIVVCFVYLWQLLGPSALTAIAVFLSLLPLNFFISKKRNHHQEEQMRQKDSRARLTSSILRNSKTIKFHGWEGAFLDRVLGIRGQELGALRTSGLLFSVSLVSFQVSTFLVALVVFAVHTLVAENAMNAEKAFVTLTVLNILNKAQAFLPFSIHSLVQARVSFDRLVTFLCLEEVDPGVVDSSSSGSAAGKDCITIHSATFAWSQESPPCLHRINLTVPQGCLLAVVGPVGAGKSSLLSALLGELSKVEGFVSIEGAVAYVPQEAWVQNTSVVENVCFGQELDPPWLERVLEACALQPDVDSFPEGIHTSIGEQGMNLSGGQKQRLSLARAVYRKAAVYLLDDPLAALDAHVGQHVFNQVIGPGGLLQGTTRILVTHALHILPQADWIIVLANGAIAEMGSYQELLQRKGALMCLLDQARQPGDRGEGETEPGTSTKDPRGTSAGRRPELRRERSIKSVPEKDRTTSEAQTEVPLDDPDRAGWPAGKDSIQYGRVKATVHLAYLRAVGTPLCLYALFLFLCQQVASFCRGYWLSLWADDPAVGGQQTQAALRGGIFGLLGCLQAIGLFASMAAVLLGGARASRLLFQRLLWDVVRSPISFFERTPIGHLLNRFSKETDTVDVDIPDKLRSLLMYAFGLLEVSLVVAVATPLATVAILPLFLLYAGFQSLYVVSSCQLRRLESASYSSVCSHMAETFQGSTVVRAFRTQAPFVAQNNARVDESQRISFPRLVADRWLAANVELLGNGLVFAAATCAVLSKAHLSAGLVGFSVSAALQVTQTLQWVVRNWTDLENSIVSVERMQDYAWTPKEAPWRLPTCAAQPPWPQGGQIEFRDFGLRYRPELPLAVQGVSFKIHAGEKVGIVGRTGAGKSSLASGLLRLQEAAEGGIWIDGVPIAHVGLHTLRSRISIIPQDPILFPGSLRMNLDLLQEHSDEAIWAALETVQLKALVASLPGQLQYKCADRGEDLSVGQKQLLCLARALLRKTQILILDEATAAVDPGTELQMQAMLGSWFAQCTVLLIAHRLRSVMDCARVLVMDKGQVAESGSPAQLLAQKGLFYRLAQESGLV
- experiment notes: ABCC6 WT assay: HiBit protein expression
- condition summary: HEK-293 cells transiently expressing HiBit-tagged ABCC6 WT; 24 h treatment; top concentration 20 μM; read-out: ABCC6 WT EC50, Emax
pEC50: −log10 of the molar value.

Looking for the measured pEC50 of Cc1sc(C2CC2)nc1Oc1nc(-c2cncc(C#N)c2)ccc1NS(C)(=O)=O , can you help?
> 6.00

Queued: Cc1nc(C(F)F)nc(C)c1Oc1nc(-c2cncc(Cl)c2)ccc1NS(C)(=O)=O
> 6.00

Queued: Cc1cc(C2CC2)nc(C)c1Oc1nc(-n2cc(C#N)cn2)ccc1NS(C)(=O)=O
> 6.00

Queued: Cc1cc(OC2CC2)nc(C)c1Oc1nc(-c2cncc(C#N)c2)ccc1NS(C)(=O)=O
> 6.00

Queued: Cc1cc(C)c(Oc2nc(-c3cncc(C#N)c3)ccc2NS(=O)(=O)C2CC2)c(C)n1
> 6.00

Queued: Cc1cc(C(F)(F)F)nc(C2CC2)c1Oc1nc(-c2cncc(C#N)c2)ccc1S(=N)(=O)c1cccnn1 (stereo not shown)
5.00 to 6.00

Queued: Cc1cc(C)c(Oc2cc(-c3cncc(Cl)c3)cnc2NS(C)(=O)=O)c(C)c1
5.00 to 6.00

Queued: CNS(=O)(=O)c1ccc(-c2cncc(C#N)c2)nc1Oc1c(C)cc(C(F)F)nc1C1CC1
> 6.00

Queued: Cc1cc(C)c(Oc2nc(N3CC4(C3)CN(S(=O)(=O)C3CC3)C4)ccc2NS(C)(=O)=O)c(C)c1
≤ 4.60

Queued: Cc1cc(C)c(Oc2nc(-c3cncc(Cl)c3)cnc2NS(C)(=O)=O)c(C)c1
> 6.00

Queued: Cc1nc(C2CC2)nc(C)c1Oc1nc(-c2cncc(C#N)c2)ccc1NS(C)(=O)=O
> 6.00

Queued: Cc1cc(C2CC2)nc(C)c1Oc1nc(-c2cncc(C#N)c2)ccc1NS(=O)(=O)C1CCC1
5.00 to 6.00

Queued: Cc1cc(C)c(Oc2nc(-c3cnn(C)c3C)ccc2NS(C)(=O)=O)c(C)c1
> 6.00

Queued: CS(=O)(=O)Nc1ccc(-c2cncc(C#N)c2)nc1Oc1c(C2CC2)nc(C(F)(F)F)nc1C1CC1
> 6.00

Queued: Cc1cc(C(F)F)nc(C2CC2)c1Oc1nc(-c2cncc(C#N)c2)ccc1NS(C)(=O)=O
> 6.00

Queued: Cc1cc(C)c(Oc2nc(N3CCN(C(=O)C4CC4)CC3)ccc2NS(C)(=O)=O)c(C2CC2)n1
5.00 to 6.00

Queued: Cc1cc(C)c(Oc2nc(-c3cncc(Cl)c3)ccc2N(C)S(=O)(=O)c2cccnc2)c(C2CC2)c1
5.00 to 6.00

Queued: Cc1cc(C)c(Oc2nc(-c3cc(Cl)cnc3C)ccc2NS(C)(=O)=O)c(C)n1
5.00 to 6.00

Queued: Cc1cc(C)c(Oc2nc(N3CCN(C(=O)C4CC4)CC3)ccc2S(N)(=O)=O)c(C)c1
5.00 to 6.00

Queued: Cc1nc(C)c(Oc2nc(-c3cncc(C#N)c3)ccc2N(C)S(C)(=O)=O)c(C2CC2)n1
≤ 4.60

Queued: Cc1cc(C(F)F)nc(C2CC2)c1Oc1nc(-c2cncc(C#N)c2)ccc1N(C)S(=O)(=O)C1CC1
5.00 to 6.00

Queued: Cc1cc(C)c(Oc2nc(-c3c[nH]c(=O)c(C#N)c3)ccc2NS(C)(=O)=O)c(C)n1
5.00 to 6.00
